molecular target: KRAS-G12D and SOS1 (Homo sapiens, UniProt P01116, G12D); assay: Inhibition of KRAS-G12D/SOS1 binding (Cisbio binding kit, 665/615 ratio), Effect Embodiment A; conditions: read-out: GTP-KRAS-G12D:SOS1 IC50
Sequence (P01116 1-188 isoform P01116-2 G12D): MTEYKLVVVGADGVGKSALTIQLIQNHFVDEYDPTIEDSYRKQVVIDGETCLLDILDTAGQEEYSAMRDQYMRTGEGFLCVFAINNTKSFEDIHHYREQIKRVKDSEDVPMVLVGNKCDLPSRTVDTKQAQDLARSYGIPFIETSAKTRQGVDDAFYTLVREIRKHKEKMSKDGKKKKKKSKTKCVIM
Structures can show the parent of a compound that is named as a salt.
Measured Quantity: IC50 (nM)
One number for each entry, in nM.

Worked examples follow.
[
  {
    "Compound": "O=S1(=O)CC2CCC(C1)N2CCCOc1nc(N2CC3CCC(C2)N3)c2cc(Cl)c(-c3cc(O)cc4ccccc34)c(F)c2n1 (single isomer, unassigned)",
    "Reported Measurement": 556
  },
  {
    "Compound": "CN1CC(C)(C)C[C@H]1COc1nc(N2CC3CCC(C2)N3)c2cnc(-c3cc(O)cc4ccccc34)c(F)c2n1",
    "Reported Measurement": 37.2
  }
]

Give IC50 for each listed item.
1. Oc1cc(-c2c(Cl)cc3c(N4CC5CCC(C4)N5)nc(OCCC4(N5CCCC5)CC4)nc3c2F)c2ccccc2c1 (single isomer, unassigned) [Compound 117, dihydrochloride]
2. CN1CCC[C@H]1COc1nc(N2CC3CCC(C2)N3)c2cc(Cl)c(-c3cc(O)c(F)c4ccccc34)c(F)c2n1 (single isomer, unassigned) [Compound 89a, hydrochloride]

Result ::
[59.3, 47.7]

Query :: Form field: IC50 recorded for CN(C)[C@H]1C[C@H](Oc2nc(N3CC4CCC(C3)N4)c3cc(Cl)c(-c4cc(O)cc5ccccc45)c(F)c3n2)C1 (single isomer, unassigned) [Compound 69b, dihydrochloride] with KRAS-G12D and SOS1 (Homo sapiens, UniProt P01116, G12D) (enter value)
Result :: 157
